Read-out record for PIK3CA (human) (UniProt P42336): IC50

Problem: Consider the compound "CC(C)c1ccn2nc(N)c(C(=O)N[C@@H](C)c3cc4cccc(Cl)c4c(=O)n3-c3ccccc3)c2n1" and give its measured IC50.
Result: ≥ 10 µM

Problem: What do you get for "C[C@H](NC(=O)c1nc(-c2cccc(S(C)(=O)=O)c2)c(N)nc1N)c1cc2cccc(Cl)c2c(=O)n1-c1ccccc1" ?
Result: < 0.1 µM

Problem: What do you get for "Cc1cnc(C(=O)N[C@@H](C)c2c(Br)c3cccc(Cl)c3c(=O)n2-c2ccccc2)c(N)n1" ?
Result: ≥ 10 µM

Problem: What do you get for "C#Cc1cccc2cc([C@H](C)NC(=O)c3c(N)nn4cccnc34)n(-c3ccccc3)c(=O)c12" ?
Result: 0.1 to 1 µM

Problem: What do you get for "C[C@H](NC(=O)c1c(N)nn2cccnc12)c1cc2cccc(C(F)(F)F)c2c(=O)n1-c1ccccc1" ?
Result: ≥ 10 µM

Problem: What do you get for "C[C@H](NC(=O)c1nccnc1N)c1cc2cccc(-c3cccnc3)c2c(=O)n1-c1ccccc1" ?
Result: ≥ 10 µM

Problem: What do you get for "Cc1ccn2ncc(C(=O)N[C@@H](C)c3cc4cccc(Cl)c4c(=O)n3-c3ccccc3)c2n1" ?
Result: ≥ 10 µM

Problem: What do you get for "C[C@H](NC(=O)c1c(N)nn2cccnc12)c1cc2cccc(/C=C/c3ccccc3)c2c(=O)n1-c1ccccc1" ?
Result: ≥ 10 µM

The reported measurements were obtained from the Kinase Knowledgebase extract (Sharma et al. 2016).
